Biological target: Vs.4 (Tequatrovirus T4, UniProt P13314)
Construct: residues 1-88, full length; SUMO fusion with His6, tag cleaved by ULP1; E. coli BL21(DE3)pLysS
Sequence (P13314 whole entry, the tested form may be a part): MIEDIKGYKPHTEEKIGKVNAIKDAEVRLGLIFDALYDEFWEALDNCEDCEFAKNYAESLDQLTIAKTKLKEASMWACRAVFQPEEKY
Experiment: isothermal titration calorimetry (VP-ITC), global fit of three titrations
recordedEndpoint: Kd (nM)
Answer with a number only, understood to be in nM.

Prompt line: Write down the reported Kd of Nc1nc2c(ncn2[C@@H]2O[C@@H]3COP(=O)(O)O[C@H]4[C@@H](O)[C@H](n5cnc6c(N)ncnc65)O[C@@H]4COP(=O)(O)O[C@H]3[C@H]2O)c(=O)[nH]1 , test system: Vs.4 (Tequatrovirus T4, UniProt P13314).
Response line: 31.4
